- subject of test: Mutant IDH1 R132H (Homo sapiens, UniProt O75874, R132H)
- Construct: His6 with PreScission site (N, cleaved yes)
- Sequence (O75874 whole entry R132H): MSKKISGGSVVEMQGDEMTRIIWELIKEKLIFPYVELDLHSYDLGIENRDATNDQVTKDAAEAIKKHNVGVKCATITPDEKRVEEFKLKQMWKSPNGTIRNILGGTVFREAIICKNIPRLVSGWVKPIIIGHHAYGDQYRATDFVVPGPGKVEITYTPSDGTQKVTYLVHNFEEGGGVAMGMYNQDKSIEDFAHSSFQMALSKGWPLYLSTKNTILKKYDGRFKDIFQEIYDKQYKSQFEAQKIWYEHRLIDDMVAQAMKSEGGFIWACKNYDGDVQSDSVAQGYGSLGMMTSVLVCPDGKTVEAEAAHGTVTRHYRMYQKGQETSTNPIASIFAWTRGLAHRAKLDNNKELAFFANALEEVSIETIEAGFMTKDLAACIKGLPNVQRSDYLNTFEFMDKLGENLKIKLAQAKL
- protocol details: Mutant IDH1 biochemical assay: LC-MS detection of 2-HG; note: mIDH R132H 0.25 nM, 5 µM NADPH
- applied conditions: mIDH R132H […], 5 uM NADPH, 100 uM alpha-KG, 45 minutes incubation; range where run multiple times
observation type: IC50 (nM)

Observe how each entry below is paired with its result.
C[C@H](Nc1ncc(F)c(N2C(=O)OCC2(C)C2CC2)n1)c1ccc(CN2CCC(N(C)C)CC2)cc1F (single isomer, unassigned) [Example 57] :: 868
C[C@H](Nc1nc(Cl)cc(N2C(=O)OC[C@@H]2C2CC2)n1)c1ccc(C(C)(C)F)cc1F [Example 20] :: 83.9

(1) C[C@H](Nc1nc(Cl)cc(N2C(=O)OC[C@@H]2C2CC2)n1)c1cn(-c2ccc(F)cc2)cn1 [Example 27]
(2) Cc1cc(N2C(=O)OC[C@@H]2C2CC2)nc(N[C@@H](C)c2cn(-c3ccc(Cl)cc3)cn2)n1 [Example 7]
stdin: Compare reported IC50 values for 1 and 2 . Which is lower? State your choice using its label.
stdout: 2
(2: 8.45 nM, 1: 20 nM)

---

- subject of test: IDH1 (R132H) mutant (Homo sapiens, UniProt O75874, R132H)
- Construct: His6 with PreScission site (N, cleaved yes)
- protocol details: Fluorescence biochemical assay (NADPH oxidation)
- applied conditions: mIDH R132H 10 nM, 10 μM NADPH, 100 μM α-KG; range where run multiple times
pIC50: −log10 of the molar value.
observation type: pIC50

(I) C[C@H](Nc1nc(Cl)cc(N2C(=O)OC[C@@H]2C2CC2)n1)c1cn(-c2ccc(F)cc2)cn1 [Example 27]
(II) C[C@H](Nc1ncc(F)c(N2C(=O)OCC2(C)C2CC2)n1)c1ccc(CN2CCC(N(C)C)CC2)cc1F (single isomer, unassigned) [Example 58]
(III) Cc1cc(N2C(=O)OC[C@@H]2C2CC2)nc(N[C@@H](C)c2cn(-c3ccc(Cl)cc3)nn2)n1 [Example 11]
(IV) C[C@H](Nc1ncc(F)c(N2C(=O)OCC2(C)C2CC2)n1)c1ccc(CN2CCC(C)(N)CC2)c(F)c1 (single isomer, unassigned) [Example 59]
(V) C[C@H](Nc1ncc(F)c(N2C(=O)OCC2(C)C2CC2)n1)c1ccc(CN2CCC(N(C)C)CC2)cc1F (single isomer, unassigned) [Example 57]
stdin: Reorder the items by pIC50, least to greatest. # output: labels, in the requested order
stdout: II, V, IV, III, I

(A) C[C@H](Nc1nc(Cl)cc(N2C(=O)OC[C@@H]2C2CC2)n1)c1cc(F)c(-c2cnn(C)c2)cc1F [Example 18]
(B) C[C@H](Nc1ncc(F)c(N2C(=O)OCC2(C)C2CC2)n1)c1ccc(CN2CCC(C)(N)CC2)cc1F (single isomer, unassigned) [Example 62]
(C) C[C@H](Nc1nccc(N2C(=O)OC[C@@H]2C2CC2)n1)c1ccn(-c2ccc(C(F)(F)F)nc2)n1 [Example 17]
(D) C[C@H](Nc1nc(F)cc(N2C(=O)OC[C@@H]2C2CC2)n1)c1ccccc1 [Example 1]
stdin: Order field: pIC50 | Direction: descending (largest first) Form entry: labels listed in requested order.
stdout: A, C, D, B
